# METHOD DESCRIPTION: Acute toxicity (LD50) in monkeys
# CONDITION NOTES: monkey, in vivo, po
VALUE TYPE: LD50

In: Give the measured LD50 of `CCCCCCCCc1ccc(CCC(N)(CO)CO)cc1.Cl` .
Out: > 10 mg/kg

* * *

# METHOD DESCRIPTION: Acute toxicity (LD50) in rats
# CONDITION NOTES: rat, in vivo, po
VALUE TYPE: LD50

In: Quick one: LD50 of `CCCCCCCCc1ccc(CCC(N)(CO)CO)cc1.Cl` ?
Out: > 10 mg/kg
